Cited source for all entries: patent US8258295B2

# Tested on: peripheral blood mononuclear leukocytes (PBML)
# test.description: PBML DNA synthesis ([3H]-thymidine)
# Assay type: cell-based
# protocol.conditions: Homo sapiens, Leukocyte; con A stimulated PBML, 48 hr; read-out: DNA Synthesis Con A
Please provide measured pIC50 for the entries that follow.
// pIC50 is dimensionless: -log10 of concentration (M)

[Q] Give reported pIC50 value for "NCCCCCNc1nc(NCCc2ccc(O)cc2)nc(Nc2ccc(F)cc2)n1"
[A] 5.10

[Q] Give reported pIC50 value for "NCCCCCNc1nc(NCCc2ccc(O)cc2)nc(Nc2cccc(F)c2)n1"
[A] 5.43

[Q] Give reported pIC50 value for "NCCCCCNc1nc(NCCc2ccc(S(N)(=O)=O)cc2)nc(Nc2cccc(F)c2)n1"
[A] 5.54
